- EXPERIMENTAL_TARGET: Gamma-aminobutyric acid receptor subunit alpha-1/beta-2/delta (Homo sapiens, UniProt O14764+P14867+P47870)
- Sequence (P14867 whole entry, one chain of several): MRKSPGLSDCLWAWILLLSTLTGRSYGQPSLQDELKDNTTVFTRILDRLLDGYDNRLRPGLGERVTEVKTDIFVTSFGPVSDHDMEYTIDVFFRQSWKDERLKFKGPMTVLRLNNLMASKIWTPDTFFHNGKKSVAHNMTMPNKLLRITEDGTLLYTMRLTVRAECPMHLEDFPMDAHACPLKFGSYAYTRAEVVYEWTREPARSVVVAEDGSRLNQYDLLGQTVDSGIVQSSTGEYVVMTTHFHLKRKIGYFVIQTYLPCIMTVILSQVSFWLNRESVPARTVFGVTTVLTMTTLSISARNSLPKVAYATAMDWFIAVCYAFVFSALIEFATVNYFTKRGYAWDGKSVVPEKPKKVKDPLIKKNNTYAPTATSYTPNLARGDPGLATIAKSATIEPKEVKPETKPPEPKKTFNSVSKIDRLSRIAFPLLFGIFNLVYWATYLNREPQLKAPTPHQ
- Sequence (O14764 whole entry, one chain of several): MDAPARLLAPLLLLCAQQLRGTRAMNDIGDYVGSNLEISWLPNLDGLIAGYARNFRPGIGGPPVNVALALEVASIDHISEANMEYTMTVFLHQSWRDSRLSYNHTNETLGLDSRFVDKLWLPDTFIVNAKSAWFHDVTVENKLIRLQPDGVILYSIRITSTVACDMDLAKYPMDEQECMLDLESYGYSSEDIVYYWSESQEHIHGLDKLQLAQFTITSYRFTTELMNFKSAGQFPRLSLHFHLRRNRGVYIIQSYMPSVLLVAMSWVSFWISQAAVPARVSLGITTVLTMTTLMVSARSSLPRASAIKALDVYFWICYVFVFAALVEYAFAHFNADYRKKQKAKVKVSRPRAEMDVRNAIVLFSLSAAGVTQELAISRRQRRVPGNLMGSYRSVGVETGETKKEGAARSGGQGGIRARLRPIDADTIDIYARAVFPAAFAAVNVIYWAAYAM
- METHOD_SUMMARY: Antagonist activity at human alpha1beta2delta GABAA receptor expressed in HEK293 Flp-In cells by FMP assay
- Assay type: cell-based, Flp-In-293
Below is a list of entries, each paired with its recorded IC50 value.
# number only, unit µM dropped from output

{"columns": ["SMILES_INPUT", "IC50 [µM]"],
 "data": [
  ["Cc1cccc(C(=O)N2CCC3(CCNCC3)CC2)c1", 4.95]
]}

We next turn to a different molecule, shown below.
Quick one: IC50 for Cc1ccc(C(=O)N2CCC3(CCNCC3)CC2)cc1 ? 13.2

====

- EXPERIMENTAL_TARGET: GABA A receptor alpha-2/beta-2/gamma-2 (Homo sapiens, UniProt P18507+P47869+P47870)
- METHOD_SUMMARY: Antagonist activity at human alpha2beta2gamma2 GABAA receptor expressed in HEK293 cells by FMP assay
- Format: cell-based
Below is a list of entries, each paired with its recorded pIC50 value.
Expect pIC50 as a plain number equal to -log10 of the molar concentration.

{"columns": ["SMILES_INPUT", "MEASURED_VALUE"],
 "data": [
  ["Cc1ccc(C(=O)N2CCC3(CCNCC3)CC2)cc1", 4.60]
]}

We next turn to a different compound, shown below.
Quick one: pIC50 for Cc1cccc(C(=O)N2CCC3(CCNCC3)CC2)c1 ? 5.12

====

- METHOD_SUMMARY: Efflux ratio of apparent permeability across basolateral to apical side over apical to basolateral side in MDCK
- Assay type: ADME, cell-based, Canis lupus familiaris
- TEST_CONTEXT: dog
TEST_READOUT: efflux ratio
Number only, please.

Quick one: efflux ratio for Cc1cccc(C(=O)N2CCC3(CCNCC3)CC2)c1 ? 11.5

====

- EXPERIMENTAL_TARGET: GABA A receptor alpha-2/beta-2/gamma-2 (Homo sapiens, UniProt P18507+P47869+P47870)
- Sequence (P47870 whole entry): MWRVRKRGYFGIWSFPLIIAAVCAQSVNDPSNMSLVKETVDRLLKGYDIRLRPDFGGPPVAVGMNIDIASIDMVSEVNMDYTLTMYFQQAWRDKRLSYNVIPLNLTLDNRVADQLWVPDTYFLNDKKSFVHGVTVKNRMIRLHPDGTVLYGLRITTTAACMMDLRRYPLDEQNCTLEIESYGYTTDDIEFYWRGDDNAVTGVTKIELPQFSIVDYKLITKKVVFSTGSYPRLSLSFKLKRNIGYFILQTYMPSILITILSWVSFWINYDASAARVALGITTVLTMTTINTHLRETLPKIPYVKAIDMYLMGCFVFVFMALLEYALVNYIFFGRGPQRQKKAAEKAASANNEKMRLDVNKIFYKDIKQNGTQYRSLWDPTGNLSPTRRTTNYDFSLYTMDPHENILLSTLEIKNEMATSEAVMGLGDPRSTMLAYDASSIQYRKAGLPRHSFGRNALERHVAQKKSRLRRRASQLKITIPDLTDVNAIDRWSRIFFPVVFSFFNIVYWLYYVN
- Sequence (P18507 whole entry): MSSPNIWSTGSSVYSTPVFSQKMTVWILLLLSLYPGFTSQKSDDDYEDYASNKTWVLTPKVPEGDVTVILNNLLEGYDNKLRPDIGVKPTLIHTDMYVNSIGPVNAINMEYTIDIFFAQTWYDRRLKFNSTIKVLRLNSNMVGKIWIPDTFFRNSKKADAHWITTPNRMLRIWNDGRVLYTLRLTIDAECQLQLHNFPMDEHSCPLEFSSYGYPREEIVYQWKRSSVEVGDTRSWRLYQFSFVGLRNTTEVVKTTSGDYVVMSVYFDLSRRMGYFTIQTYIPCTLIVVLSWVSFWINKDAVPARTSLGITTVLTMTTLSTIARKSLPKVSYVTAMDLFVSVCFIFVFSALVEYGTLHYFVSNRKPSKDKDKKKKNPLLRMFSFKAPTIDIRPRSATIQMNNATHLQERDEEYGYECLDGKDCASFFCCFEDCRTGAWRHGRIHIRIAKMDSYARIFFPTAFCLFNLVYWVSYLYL
- Sequence (P47869 whole entry): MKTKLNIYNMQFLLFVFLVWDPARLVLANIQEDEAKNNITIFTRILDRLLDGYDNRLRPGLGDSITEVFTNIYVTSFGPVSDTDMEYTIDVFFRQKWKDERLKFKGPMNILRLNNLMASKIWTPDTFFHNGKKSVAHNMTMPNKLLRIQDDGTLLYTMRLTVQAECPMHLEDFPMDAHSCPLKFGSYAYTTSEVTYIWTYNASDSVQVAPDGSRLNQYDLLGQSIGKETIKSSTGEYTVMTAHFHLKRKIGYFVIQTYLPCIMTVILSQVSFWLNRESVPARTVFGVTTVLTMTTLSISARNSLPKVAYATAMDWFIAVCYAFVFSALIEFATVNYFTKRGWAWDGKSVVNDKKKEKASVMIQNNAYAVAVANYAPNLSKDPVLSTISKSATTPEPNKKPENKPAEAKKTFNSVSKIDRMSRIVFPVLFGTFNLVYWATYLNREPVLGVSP
- METHOD_SUMMARY: Antagonist activity at human alpha2beta2gamma2 GABAA receptor expressed in HEK cells by FMP assay
- Format: cell-based
TEST_READOUT: pIC50
Expect pIC50 as a plain number equal to -log10 of the molar concentration.

{"columns": ["SMILES_INPUT", "MEASURED_VALUE"],
 "data": [
  ["O=C(Nc1cccc(C(=O)N2CCC3(CCNCC3)CC2)c1)c1cccs1", 6.49]
]}

We next turn to a different compound, shown below.
Entry CC(=O)Nc1cccc(C(=O)N2CCC3(CCNCC3)CC2)c1 , system GABA A receptor alpha-2/beta-2/gamma-2 (Homo sapiens, UniProt P18507+P47869+P47870): what pIC50 was measured? 5.53

Hello, the source for this data is ChEMBL document CHEMBL5096209, in case you need it.
